Procedure summary: Panobinostat plasma pharmacokinetics, cycle 1 day 8, non-compartmental
Type: in vivo, human
Assay conditions: human, plasma, oral, 15 mg, AUC0–24, PAN 15 mg, N=10; geometric mean (%CV)
Value type: AUC(0-t) (ng·h/mL)
Supply the numeric figure in ng·h/mL, leaving out any unit text.

So what does the record say about AUC(0-t) for `Cc1[nH]c2ccccc2c1CCNCc1ccc(/C=C/C(=O)NO)cc1` ?
42.5

----------
Procedure summary: Panobinostat plasma pharmacokinetics, cycle 1 day 8, non-compartmental
Assay type: in vivo, human
Assay conditions: human, plasma, oral, 20 mg, AUC0–24, PAN 20 mg, N=11; geometric mean (%CV)
Value type: AUC(0-t) (ng·h/mL)
Your answer should be a plain number; it is taken to be in ng·h/mL.

Find the recorded AUC(0-t) belonging to `Cc1[nH]c2ccccc2c1CCNCc1ccc(/C=C/C(=O)NO)cc1` and report it.
62.6

----------
Procedure summary: Panobinostat plasma pharmacokinetics, cycle 1 day 8, non-compartmental
Assay type: in vivo, human
Assay conditions: human, plasma, oral, 20 mg, Vz/F, PAN 20 mg, N=11; geometric mean (%CV)
Value type: Vd/F (L)
API: value field is a number in L; no unit string.

Fill in: Vd/F of `Cc1[nH]c2ccccc2c1CCNCc1ccc(/C=C/C(=O)NO)cc1` is ___
3790

----------
Procedure summary: Panobinostat plasma pharmacokinetics, cycle 1 day 8, non-compartmental
Format: in vivo, human
Assay conditions: human, plasma, oral, 20 mg, AUC0–24, PAN 20 mg (expansion phase), N=10; geometric mean (%CV)
Value type: AUC(0-t) (ng·h/mL)
Answer format: numeric, ng·h/mL implied, no suffix.

Look up AUC(0-t) for this molecule: `Cc1[nH]c2ccccc2c1CCNCc1ccc(/C=C/C(=O)NO)cc1`
92.7

----------
Procedure summary: Panobinostat plasma pharmacokinetics, cycle 1 day 8, non-compartmental
Assay type: in vivo, human
Assay conditions: human, plasma, oral, 20 mg, Vz/F, PAN 20 mg (expansion phase), N=10; geometric mean (%CV)
Value type: Vd/F (L)
Write the number in L without appending the unit.

So what does the record say about Vd/F for `Cc1[nH]c2ccccc2c1CCNCc1ccc(/C=C/C(=O)NO)cc1` ?
1810

----------
Procedure summary: Panobinostat plasma pharmacokinetics, cycle 1 day 8, non-compartmental
Type: in vivo, human
Assay conditions: human, plasma, oral, 25 mg, T1/2, Median (range), PAN 25 mg, N=8
Value type: half-life (h)
Please give a number only; it is taken to be in h.

For `Cc1[nH]c2ccccc2c1CCNCc1ccc(/C=C/C(=O)NO)cc1` , what is its reported half-life?
7.81

----------
Procedure summary: Panobinostat plasma pharmacokinetics, cycle 1 day 8, non-compartmental
Type: in vivo, human
Assay conditions: human, plasma, oral, 25 mg, AUC0–24, PAN 25 mg, N=8; geometric mean (%CV)
Value type: AUC(0-t) (ng·h/mL)
API: value field is a number in ng·h/mL; no unit string.

Requested field: AUC(0-t). Item: Cc1[nH]c2ccccc2c1CCNCc1ccc(/C=C/C(=O)NO)cc1 [panobinostat]
74.6

----------
Procedure summary: Panobinostat plasma pharmacokinetics, cycle 1 day 8, non-compartmental
Assay type: in vivo, human
Assay conditions: human, plasma, oral, 15 mg, Tmax, Median (range), PAN 15 mg, N=10
Value type: Tmax (h)
Respond numerically; units are h and should not be typed.

Can you share its Tmax? I mean this compound: `Cc1[nH]c2ccccc2c1CCNCc1ccc(/C=C/C(=O)NO)cc1`
3

----------
Procedure summary: Panobinostat plasma pharmacokinetics, cycle 1 day 8, non-compartmental
Assay type: in vivo, human
Assay conditions: human, plasma, oral, 25 mg, Vz/F, PAN 25 mg, N=8; geometric mean (%CV)
Value type: Vd/F (L)
Please reply with the bare figure in L and do not write the unit itself.

Fill blank: measured Vd/F of the molecule Cc1[nH]c2ccccc2c1CCNCc1ccc(/C=C/C(=O)NO)cc1 [panobinostat] is ____.
3360

----------
Procedure summary: Panobinostat plasma pharmacokinetics, cycle 1 day 8, non-compartmental
Type: in vivo, human
Assay conditions: human, plasma, oral, 20 mg, Tmax, Median (range), PAN 20 mg, N=11
Value type: Tmax (h)
Number only, in h; omit the unit.

Look at this compound and give its reported Tmax. Cc1[nH]c2ccccc2c1CCNCc1ccc(/C=C/C(=O)NO)cc1 [panobinostat]
1.05

----------
Procedure summary: Panobinostat plasma pharmacokinetics, cycle 1 day 8, non-compartmental
Type: in vivo, human
Assay conditions: human, plasma, oral, 15 mg
Value type: Cmax (ng/mL)
Expressed in ng/mL, but write only the number.

Quick one: Cmax of Cc1[nH]c2ccccc2c1CCNCc1ccc(/C=C/C(=O)NO)cc1 [panobinostat] ?
6.03

----------
Procedure summary: Panobinostat plasma pharmacokinetics, cycle 1 day 8, non-compartmental
Assay type: in vivo, human
Assay conditions: human, plasma, oral, 20 mg, AUC0inf, PAN 20 mg, N=11; geometric mean (%CV)
Value type: AUC (ng·h/mL)
Give just the number in ng·h/mL; leave the unit off.

Look at this compound and give its reported AUC. `Cc1[nH]c2ccccc2c1CCNCc1ccc(/C=C/C(=O)NO)cc1`
74.3

----------
Procedure summary: Panobinostat plasma pharmacokinetics, cycle 1 day 8, non-compartmental
Format: in vivo, human
Assay conditions: human, plasma, oral, 20 mg, T1/2, Median (range), PAN 20 mg (expansion phase), N=10
Value type: half-life (h)
Just the number in h, nothing appended.

For the molecule shown here, `Cc1[nH]c2ccccc2c1CCNCc1ccc(/C=C/C(=O)NO)cc1` , give the reported half-life.
7.94

----------
Procedure summary: Panobinostat plasma pharmacokinetics, cycle 1 day 8, non-compartmental
Assay type: in vivo, human
Assay conditions: human, plasma, oral, 15 mg, Vz/F, PAN 15 mg, N=10; geometric mean (%CV)
Value type: Vd/F (L)
Quick note: give the figure in L, leave out the unit.

Field request: Vd/F | item: `Cc1[nH]c2ccccc2c1CCNCc1ccc(/C=C/C(=O)NO)cc1`
3920

----------
Procedure summary: Panobinostat plasma pharmacokinetics, cycle 1 day 8, non-compartmental
Assay type: in vivo, human
Assay conditions: human, plasma, oral, 25 mg
Value type: Cmax (ng/mL)
Respond with the bare value in ng/mL.

What Cmax value was documented for this compound, `Cc1[nH]c2ccccc2c1CCNCc1ccc(/C=C/C(=O)NO)cc1` ?
11.2

----------
Procedure summary: Panobinostat plasma pharmacokinetics, cycle 1 day 8, non-compartmental
Type: in vivo, human
Assay conditions: human, plasma, oral, 15 mg, T1/2, Median (range), PAN 15 mg, N=10
Value type: half-life (h)
Kindly answer with a numeric value in h, unit omitted.

I am curious: what half-life value has been reported for Cc1[nH]c2ccccc2c1CCNCc1ccc(/C=C/C(=O)NO)cc1 [panobinostat] ?
8.74
